B1: Chromodomain-helicase-DNA-binding protein 4, residues 444 to 496; numbered along this chain, Q14839 (parent)
chain: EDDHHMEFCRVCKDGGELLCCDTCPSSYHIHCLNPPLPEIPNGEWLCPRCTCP

- Variants of: B1
- ASSAY DETAILS: abundance fitness (aPCA) (normalised: wild type 0, dead -1); higher = more abundant; growth selection in yeast, the domain comes from the species named
- RUN PARAMETERS: Homo sapiens
If the reported abundance fitness equals or exceeds -0.1, assign yes. If not, assign no.

>  <MUTATION STRING>
S27R

>  <LABEL VALUE>
yes

$$$$

Has `P25D` a recorded abundance fitness greater than or equal to -0.1?
no

Has `N34T` a recorded abundance fitness greater than or equal to -0.1?
yes

Has `P25A` a recorded abundance fitness greater than or equal to -0.1?
no

Has `R49V` a recorded abundance fitness greater than or equal to -0.1?
yes

Has `L33F` a recorded abundance fitness greater than or equal to -0.1?
no
